Hello, the source for this data is ChEMBL document CHEMBL5625179, in case you need it.

Target: CAR (NR1I3) LBD (Homo sapiens, UniProt Q14994)
Assay: Partial agonist activity at human CAR LBD expressed in human HepG2 cells at 30 uM incubated for 24 hrs by dual luciferase reporter assay relative to CITCO
Format: cell-based
Conditions: HepG2 cells expressing human CAR LBD, read-out: Activity
parameter measured: activity at 24 h, 30 µM (%)
Answer with a number only, understood to be in %.

input: Requested field: activity at 24 h, 30 µM. Item: `CSc1nc(-c2cccc(C)c2)nc2ccccc12`
output: 36.3

* * *

Molecular target: Nuclear receptor subfamily 1 group I member 3 (Homo sapiens, UniProt Q14994)
Test: Activation of human CAR3 expressed in human HepG2 cells at 30 uM incubated for 24 hrs by dual luciferase gene reporter assay relative to CITCO
Type: cell-based
Details: hepg2, 24 h
Recorded Activity by entry
Please give a number only; it is taken to be in %.

See these solved cases before continuing.
{"columns": ["chemical structure", "assay value"],
 "data": [
  ["O=[N+]([O-])c1cccc(-c2nc3ccccc3c(=S)[nH]2)c1", 11],
  ["CC(C)(C)c1ccc(-c2nc3ccccc3c(=O)[nH]2)cc1", 7],
  ["O=c1[nH]c(-c2ccc3c(c2)OCO3)nc2ccccc12", 3],
  ["S=c1[nH]c(-c2cccc(Cl)c2)nc2ccccc12", 15],
  ["O=c1[nH]c(-c2ccc(C(F)(F)F)cc2)nc2ccccc12", 12],
  ["COc1nc(-c2ccc(OC(F)(F)F)cc2)nc2ccccc12", 5]
]}

input: Report Activity for `COc1ccc(-c2nc3ccccc3c(=O)n2C)cc1OC` tested on Nuclear receptor subfamily 1 group I member 3 (Homo sapiens, UniProt Q14994).
output: 15

input: API: value(readout=Activity, system=Nuclear receptor subfamily 1 group I member 3 (Homo sapiens, UniProt Q14994)) for record `COc1ccc(-c2nc3ccccc3c(=S)[nH]2)cc1OC`
output: 13

input: Fill in the recorded Activity for this compound, with Nuclear receptor subfamily 1 group I member 3 (Homo sapiens, UniProt Q14994) as test system: `Cc1cccc(-c2nc3ccccc3c(=O)n2C)c1`
output: 13

input: Given the entry `Cn1c(-c2ccc(F)cc2)nc2ccccc2c1=O` , what Activity was observed with Nuclear receptor subfamily 1 group I member 3 (Homo sapiens, UniProt Q14994)?
output: 13

input: Quick check: Activity on Nuclear receptor subfamily 1 group I member 3 (Homo sapiens, UniProt Q14994), item `COc1ccc(-c2nc(O)c3ccccc3n2)cc1OC` ?
output: 28

input: Tell me reported Activity for `COc1nc(-c2cccc([N+](=O)[O-])c2)nc2ccccc12` , tested with Nuclear receptor subfamily 1 group I member 3 (Homo sapiens, UniProt Q14994).
output: 15

* * *

Target: Nuclear receptor subfamily 1 group I member 3 (Homo sapiens)
Sequence (Q14994 whole entry): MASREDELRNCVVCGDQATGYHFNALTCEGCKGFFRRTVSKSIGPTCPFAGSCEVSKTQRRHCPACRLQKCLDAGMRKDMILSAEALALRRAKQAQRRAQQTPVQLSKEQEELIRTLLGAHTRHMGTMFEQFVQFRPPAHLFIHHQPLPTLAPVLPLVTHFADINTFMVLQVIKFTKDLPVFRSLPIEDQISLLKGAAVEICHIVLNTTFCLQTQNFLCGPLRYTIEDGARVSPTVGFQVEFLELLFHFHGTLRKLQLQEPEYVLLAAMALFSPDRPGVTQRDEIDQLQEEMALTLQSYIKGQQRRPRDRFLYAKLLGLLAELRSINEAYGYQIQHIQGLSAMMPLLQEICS
Test: Antagonist activity at human CAR LBD expressed in human HepG2 cells incubated for 24 hrs in presence of CITCO by dual luciferase reporter assay
Type: cell-based
parameter measured: IC50
Answer with the figure and its unit, nothing else.

input: Report IC50 for `Sc1nc(-c2ccc(Br)cc2)nc2ccccc12` tested on Nuclear receptor subfamily 1 group I member 3 (Homo sapiens).
output: 30 µM
